In what follows, each item is paired with its IC50 for Mitogen-activated protein kinase 10 (Homo sapiens, UniProt P53779).
readoutLabel: IC50 (nM)

As a guide, the following entries are already answered.
Which IC50 value belongs to O=C(c1cccc(CNc2n[nH]c3cccc(F)c23)c1)N1CCN(C(=O)c2ccc(Cl)cc2Cl)CC1 ?
189

Query (molecule): O=C(c1ccc(CNc2n[nH]c3ccccc23)cc1)N1CCN(C(=O)c2ccc(F)cc2Cl)CC1 ; field requested: IC50
647

What measured IC50 goes with COc1ccc(C(=O)N2CCN(C(=O)c3ccc(CNc4n[nH]c5ccccc45)cc3)CC2)cc1 ?
615

a = O=C(c1ccc(CNc2n[nH]c3ccccc23)cc1)N1CCN(C(=O)c2cc(Cl)ccc2Cl)CC1
b = O=C(Nc1ccccc1Cl)N1CCN(C(=O)c2ccc(CNc3n[nH]c4ccccc34)cc2)CC1
c = O=C(c1cccc(CNc2n[nH]c3ccccc23)c1)N1CCN(C(=O)c2cc(C(F)(F)F)ccc2F)CC1
d = O=C(c1ccc(CNc2n[nH]c3ccccc23)cc1)N1CCN(C(=O)c2cccc(F)c2Cl)CC1
Please list these in order of increasing IC50. Thank you! Answer format: the labels, in the requested order.
a, d, b, c
